Hey, just so you know, these numbers are from patent US9834558B2.

Target: SIRT1 (Homo sapiens, UniProt Q96EB6)
Sequence (Q96EB6 1-747): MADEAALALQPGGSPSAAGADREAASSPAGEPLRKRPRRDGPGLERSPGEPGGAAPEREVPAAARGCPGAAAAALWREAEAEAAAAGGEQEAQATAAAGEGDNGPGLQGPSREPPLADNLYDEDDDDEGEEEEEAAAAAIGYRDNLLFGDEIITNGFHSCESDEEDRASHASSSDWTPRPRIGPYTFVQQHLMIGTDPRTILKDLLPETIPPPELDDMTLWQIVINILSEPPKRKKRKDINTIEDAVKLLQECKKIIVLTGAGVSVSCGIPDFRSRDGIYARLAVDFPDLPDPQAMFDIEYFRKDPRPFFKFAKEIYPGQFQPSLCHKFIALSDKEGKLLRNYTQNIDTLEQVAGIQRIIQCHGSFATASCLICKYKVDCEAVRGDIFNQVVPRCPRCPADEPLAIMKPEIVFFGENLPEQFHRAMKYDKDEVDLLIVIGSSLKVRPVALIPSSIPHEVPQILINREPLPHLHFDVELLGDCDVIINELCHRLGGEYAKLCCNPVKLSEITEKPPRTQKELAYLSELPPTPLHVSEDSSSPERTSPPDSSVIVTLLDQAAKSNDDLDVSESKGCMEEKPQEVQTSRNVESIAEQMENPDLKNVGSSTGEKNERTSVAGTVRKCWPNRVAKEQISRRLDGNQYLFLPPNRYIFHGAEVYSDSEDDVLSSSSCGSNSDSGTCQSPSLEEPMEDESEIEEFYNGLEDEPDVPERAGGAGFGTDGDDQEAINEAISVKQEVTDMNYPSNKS
Assay: Trp mass spectrometry assay of SIRT1 activation
Assay type: biochemical
Conditions: Trp peptide assay; maximum activity relative to control (100%); read-out: TRP MAX RESP (percent maximum fold activation)
measured.parameter: Emax

// worked examples, Emax included
- O=C(Nc1cnccn1)N1c2nc(-c3ccnc(C(F)F)c3)ccc2N2CC[C@H]1C2: > 150%
- O=C(Nc1cnccn1)N1c2nc(N3CCOC(C4CC4)C3)ccc2N2CC[C@H]1C2 (stereo partly drawn): > 150%
- CCn1cc(-c2ccc3c(n2)N(C(=O)Nc2cnccn2)[C@H]2CCN3C2)cn1: > 150%
- O=C(Nc1cnccn1)N1c2nc(N3CCC(C(F)(F)F)CC3)ccc2N2CC[C@H]1C2: > 150%
- O=C(Nc1ccccn1)N1c2nc(N3CCC(C(F)(F)F)C3)ccc2N2CC[C@H]1C2 (stereo partly drawn): > 150%

stdin: Consider the compound `Cc1cc(-c2ccc3c(n2)N(C(=O)Nc2ccncn2)[C@H]2CCCN3C2)ccn1` and give its measured Emax.
stdout: > 150%

stdin: Would you mind doing `N#Cc1ccc2c(n1)N(C(=O)Nc1cnccn1)[C@H]1CCN2C1` as well?
stdout: < 150%

stdin: What do you get for `CCOc1ncc(-c2ccc3c(n2)N(C(=O)Nc2cnccn2)[C@H]2CCN3C2)cc1C#N` ?
stdout: < 150%

stdin: Same for `Cc1cc(-c2ccc3c(n2)N(C(=O)Nc2ccc4c(c2)OCCO4)[C@H]2CCN3C2)ccn1`
stdout: > 150%
